- assay: protein stability index of a GFP-peptide fusion (yeast GPS) (PSI 1-4); higher = more stable; sorted into four equal gates, so the index is relative within each strain
- assay setup: doa10∆
Items are presented alongside their recorded protein stability index.
endpoint name: protein stability index

> print(dat)
                        sequence.text   val
1            IYSVEKKISRLPKFLTV [UBP6]  2.04
2           LSKMRDSVLQLASFEKT [RPO31]  3.12
3            MSSDASTYRLEDVLSSF [SSN2]  2.21
4            NFYLKRFISDLLWLVLI [SWI1]   1.8
5  GISRDIKALQDSLFKDV [YML103C/NUP188]  2.19
6            SPSERIEPLEINIQSFK [BRR2]  2.51
7           FQDTLYKKIPLLGPTLE [QCR10]  2.84
8            VDDDQDYVVAPGVNREI [GRR1]  3.17

* * *

- assay: protein stability index of a GFP-peptide fusion (yeast GPS) (PSI 1-4); higher = more stable; sorted into four equal gates, so the index is relative within each strain
- assay setup: san1∆
sequences and their reported protein stability index
endpoint name: protein stability index

> print(dat)
                        sequence.text   val
 1         QQTGLVDAITRCYQPFE [SNU114]  3.04
 2           PTQTVAELDLMSGILHC [RPN6]  2.95
 3           TEKEEDAELMADEEEEI [ISW2]  3.41
 4           MKTKTINAQGEEIVVVA [PRP8]  1.36
 5           FTGEKPIITGSTSTSSS [MED8]  2.78
 6          VPIERVAQLKPFFKYID [RPC37]  2.34
 7           AVSTIASISLAIGYPTL [RPP0]  1.53
 8         KRAEKAARKAEKAKSAG [RPL24B]  1.55
 9           LKKGEVSLGTSIMAVTF [PRE3]  1.13
10           SHFVSAVSTIASISLAI [RPP0]  1.21
11           CSDFVKILNLEKPLILA [NUT1]  1.34
12           DTIMENPEPNKKNIQKA [IRR1]  3.18
13           YMVSRAIRDGVIEAKIN [RPN3]  2.95
14  QTSRGLFGNNNTNNINN [YGL172W/NUP49]  3.13
15          AGKFPTPVSHNDDLYGK [RPL1A]  2.21
16           KKGKSSDKDATTDGKND [RPN1]  3.44
17           TIRQIILPDSLNLDSLL [SMD1]  3.11
18           NEEGDWSCIVVENWIID [ITC1]  2.68
19           KSAISNNFRESDIIILK [SIR4]  2.96
20           FKYVEDRFPLKLREPVA [ITC1]  1.81
21           FEGVTHRWGTKKLPRKT [RPL3]  3.11
22          ANVELTPSNIRSLCEVL [RPC34]  1.69

* * *

- assay: protein stability index of a GFP-peptide fusion (yeast GPS) (PSI 1-4); higher = more stable; sorted into four equal gates, so the index is relative within each strain
- assay setup: san1∆
endpoint name: protein stability index

> print(dat)
                        sequence.text   val
1    FSSNLSYANHLEESDVE [YOR098C/NUP1]  1.91
2            YGVSFFTIQSFVSSLSN [BRR2]  1.18
3    VYESEMEQCKQRYQDLS [YIL149C/MLP2]  3.03
4  WKYNNFLQKFEIAFHLT [YML103C/NUP188]  2.01
5            EYLKRVSVPVSGQKTNR [SIR3]  3.06
6          GCLNFVDENDEVLLAGF [RPS23A]   1.5
7           RMLSSILDINVSSSKNK [SWP82]  2.49
8           IINFGEIEQNTELLDEF [RPN10]  3.23

* * *

- assay: protein stability index of a GFP-peptide fusion (yeast GPS) (PSI 1-4); higher = more stable; sorted into four equal gates, so the index is relative within each strain
- assay setup: san1∆
Decide by protein stability index: equal to or exceeding 2 means Yes, less means No.

> print(dat)
              sequence.text  label.value
1  EILVEESGLRPVSLLNS [PCI8]          Yes
2  TFGKPEEEDSILSLEQS [YCS4]          Yes
3  DKKVTLITSEMFDAFVS [SIN4]           No
4  LVDNLNAEVVAGNIKCR [BRR2]           No
5  PLNVLQDQYKEGIKVVD [SNF2]           No

* * *

// reported protein stability index per item
- assay: protein stability index of a GFP-peptide fusion (yeast GPS) (PSI 1-4); higher = more stable; sorted into four equal gates, so the index is relative within each strain
- assay setup: doa10∆
endpoint name: protein stability index

> print(dat)
                         sequence.text   val
 1           VSETPKRIKGLEFSALS [RPO31]  3.01
 2           ARNVQVHQEPYVFNARP [RPS0A]  3.01
 3            NSEISNLPKDKSGIPEF [SSN2]  2.98
 4            DEIKAQRKEIKDRISSC [SMC4]     3
 5  SKSKQSFTQGELNDLKW [YMR129W/POM152]  3.02
 6            STNSNSKPSTASPSAHT [RPN4]  2.63
 7            IAATGLNQINGLNNDFL [GRR1]  3.34
 8  THVANFMNDAAADVSAV [YML103C/NUP188]  2.79
 9            ESGIKPYFEQKIQETEL [RPT6]  2.93
10            YGITHGLTNWAAAYATG [RPL5]  2.17
11            VTQSNILSQQFDKIIKI [SRB8]  2.72
12           KPNQTIMVLDASIGQAA [SRP54]  2.44
13            ESRKAFFLGYMINRLLL [RPB2]  1.17
14            HVTQEDFELAVGKVMNK [RPT6]  2.83
15            NVASLVRVQFQFTGFLL [GRR1]  1.85
16            TNNEQLQQELATTQDQV [NUT2]  3.06
17          HVLKTVDYGGAEWSLVR [SNU114]  3.09
18            MTNLTYFLHLSVFNAEL [YCS4]  1.62
19            LGRDYPIEVDEELLQLF [IRR1]  2.19
20  RLGSKKLVEIIWNDVVY [YJL039C/NUP192]   3.4
21  TFSYVDSSLQPEYFESP [YMR129W/POM152]  3.22

* * *

- assay: protein stability index of a GFP-peptide fusion (yeast GPS) (PSI 1-4); higher = more stable; sorted into four equal gates, so the index is relative within each strain
- assay setup: pdr5∆
endpoint name: protein stability index

> print(dat)
                         sequence.text   val
 1            PVIGVFQKFLTGHPKGA [FAS2]  2.79
 2            QHLRNEHGMNAPSVPEF [SNF2]  3.56
 3            LNLNNSELQPQNRSLQE [SNF2]  3.31
 4          VLIKKGQSAGKLAAIVE [RPL14A]  3.14
 5  NKLFTEPIKLEPVKEYT [YMR129W/POM152]  2.39
 6            VVEEFTPVVLATPIPEE [RPS5]  2.27
 7            REQHIDTICQSIQEQIQ [SNF5]  3.25
 8           KADIGKPGRMPFNFTVT [CDC53]  2.75
 9            GLGVNRRILAAAAAAAA [SSN3]  1.52
10   LLVKFIKFFWNNTHVGR [YLR018C/POM34]  2.48
11            AIVLPMKRADKFKDMGI [RPT5]  3.11
12            TGANFDDVERGVSRQIA [REC8]  3.63
13            YSKIKHLGLDDPQDVFN [SIR2]  3.22
14          SGYVRSRGESDDSLNRL [RPS21A]  1.85
15            RLKEKGSRVLIFSQMSR [ISW2]  2.19
16            SDGQSRVKDIHLRKLLD [RET1]  2.98
17            VEEVIKLVRDSFTSATE [PRE7]  3.33
18            SIHVNRVERSSRSTDNF [RRI1]  3.18
19           YSALNSTYLPKLISAFD [RRP42]  2.41
20            SNDPDVNNTRRRVYNRV [BRN1]  3.52
21            AVSVANGFMHAGTTDNS [RPN2]   1.4
22  IMKNKDFILSLLHHVSE [YJL039C/NUP192]  2.35
23            IMKIGGIKLQMQNSKVE [SMC4]  1.82
24          GSIQKGMPHKFYQGKTG [RPL21A]  3.06
